So I've got a bunch of compounds here, and I need their IC50 values.
Target: Thymidylate synthase (Lactobacillus casei)
Sequence (P00469 whole entry): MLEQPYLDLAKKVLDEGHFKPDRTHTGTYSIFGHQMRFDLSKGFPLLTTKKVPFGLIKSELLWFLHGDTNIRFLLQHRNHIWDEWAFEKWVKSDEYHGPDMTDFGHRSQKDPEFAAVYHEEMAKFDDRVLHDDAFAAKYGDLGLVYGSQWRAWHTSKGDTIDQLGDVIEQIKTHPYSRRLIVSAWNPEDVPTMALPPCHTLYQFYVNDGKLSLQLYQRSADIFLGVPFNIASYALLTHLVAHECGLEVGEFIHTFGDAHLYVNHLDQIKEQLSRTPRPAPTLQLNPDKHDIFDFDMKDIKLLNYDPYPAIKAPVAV
Test: Inhibition of MTX-resistant Lactobacillus casei thymidylate synthetase
Answers are plain numbers, in µM.

Consider the following illustrative entries.
Need IC50 of `CCN1CC(CN(C)c2ccc(C(=O)N[C@@H](CCC(=O)O)C(=O)O)cc2)=Nc2c(N)nc(N)nc21` , thanks.
20

Need IC50 of `CCCCCCN1CC(CN(C)c2ccc(C(=O)N[C@@H](CCC(=O)O)C(=O)O)cc2)=Nc2c(N)nc(N)nc21` , thanks.
43

Next item in the queue.
Need IC50 of `CN(CC1=Nc2c(N)nc(N)nc2N(C)C1)c1ccc(C(=O)N[C@@H](CCC(=O)O)C(=O)O)cc1` , thanks.
4

###

Target: Dihydrofolate reductase (Lactobacillus casei)
Test: Inhibition of MTX-resistant Lactobacillus casei dihydrofolate reductase
So I've got a bunch of molecules here, and I need their IC50 values.
Numbers only, in nM.

Need IC50 of CN(CC1CN(C)c2nc(N)nc(N)c2N1)c1ccc(C(=O)N[C@@H](CCC(=O)O)C(=O)O)cc1 (stereo partly drawn) , thanks.
2500

Need IC50 of `CCCCN1CC(CN(C)c2ccc(C(=O)N[C@@H](CCC(=O)O)C(=O)O)cc2)=Nc2c(N)nc(N)nc21` , thanks.
380

Need IC50 of `CN(CC1=Nc2c(N)nc(N)nc2N(Cc2ccccc2)C1)c1ccc(C(=O)N[C@@H](CCC(=O)O)C(=O)O)cc1` , thanks.
740

Need IC50 of `CN(CC1=Nc2c(N)nc(N)nc2N(C)C1)c1ccc(C(=O)N[C@@H](CCC(=O)O)C(=O)O)cc1` , thanks.
140

Need IC50 of CN(CC1CNc2nc(N)nc(N)c2N1)c1ccc(C(=O)N[C@@H](CCC(=O)O)C(=O)O)cc1 (stereo partly drawn) , thanks.
200

Hi team, please reply with IC50 for each item in this list.
1. CN(CC1=Nc2c(N)nc(N)nc2N(Cc2ccc(Cl)c(Cl)c2)C1)c1ccc(C(=O)N[C@@H](CCC(=O)O)C(=O)O)cc1
2. CN(CC1=Nc2c(N)nc(N)nc2NC1)c1ccc(C(=O)N[C@@H](CCC(=O)O)C(=O)O)cc1
3. CN(CC1=Nc2c(N)nc(N)nc2N(Cc2cccc3ccccc23)C1)c1ccc(C(=O)N[C@@H](CCC(=O)O)C(=O)O)cc1

3600
20
4500

###

Test system: Mus musculus
Assay: Toxicity in BDF/1 hybrid mouse xenografted with mouse L1210 cells assessed as optimal nontoxic dose administered q3d on day 1, 4 and 7
Type: organism-based
Conditions: in vivo
quantityKind: log10 of Activity (log10 of the value in mg/kg)
Answers are given as log10 of Activity in mg/kg.

Consider the following illustrative entries.
Need log10 of Activity of `CN(CC1=Nc2c(N)nc(N)nc2N(C)C1)c1ccc(C(=O)N[C@@H](CCC(=O)O)C(=O)O)cc1` , thanks.
2.48

Need log10 of Activity of `CN(CC1=Nc2c(N)nc(N)nc2NC1)c1ccc(C(=O)N[C@@H](CCC(=O)O)C(=O)O)cc1` , thanks.
1.48

Need log10 of Activity of `CCCCN1CC(CN(C)c2ccc(C(=O)N[C@@H](CCC(=O)O)C(=O)O)cc2)=Nc2c(N)nc(N)nc21` , thanks.
2.00

Need log10 of Activity of CN(Cc1cnc2nc(N)nc(N)c2n1)c1ccc(C(=O)N[C@@H](CCC(=O)O)C(=O)O)cc1 [METHOTREXATE] , thanks.
1.18

Hi team, please reply with log10 of Activity for each item in this list.
1. CN(CC1=Nc2c(N)nc(N)nc2N(CC2CCCCC2)C1)c1ccc(C(=O)N[C@@H](CCC(=O)O)C(=O)O)cc1
2. CN(CC1CN(C)c2nc(N)nc(N)c2N1)c1ccc(C(=O)N[C@@H](CCC(=O)O)C(=O)O)cc1 (stereo partly specified)

2.48
2.30

###

Molecular target: Dihydrofolate reductase (Lactobacillus casei, UniProt P00381)
Sequence (P00381 whole entry): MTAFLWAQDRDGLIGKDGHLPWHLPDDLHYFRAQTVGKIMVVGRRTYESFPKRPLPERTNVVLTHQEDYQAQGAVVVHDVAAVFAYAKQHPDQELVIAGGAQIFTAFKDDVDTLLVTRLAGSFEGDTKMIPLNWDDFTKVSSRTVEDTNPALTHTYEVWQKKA
Experiment: Inhibition of MTX-resistant Lactobacillus casei dihydrofolate reductase
So I've got a bunch of compounds here, and I need their pIC50 values.
One number for each entry, as −log10 of the molar value.

Hi team, please reply with pIC50 for each item in this list.
1. CN(CC1=Nc2c(N)nc(N)nc2N(CC2CCCCC2)C1)c1ccc(C(=O)N[C@@H](CCC(=O)O)C(=O)O)cc1
2. CCN1CC(CN(C)c2ccc(C(=O)N[C@@H](CCC(=O)O)C(=O)O)cc2)=Nc2c(N)nc(N)nc21
3. CCCCCCN1CC(CN(C)c2ccc(C(=O)N[C@@H](CCC(=O)O)C(=O)O)cc2)=Nc2c(N)nc(N)nc21

[6.06, 6.05, 5.74]
